The values you see were collected from paper PMC12511343.

Target: T1, Cir TonB Box mutant M33C/V35P (in 4-Met Cir) (E. coli, UniProt P17315 26-663, W338 mutated to methionine | L343 mutated to methionine | F589 mutated to …)
T1 sequence: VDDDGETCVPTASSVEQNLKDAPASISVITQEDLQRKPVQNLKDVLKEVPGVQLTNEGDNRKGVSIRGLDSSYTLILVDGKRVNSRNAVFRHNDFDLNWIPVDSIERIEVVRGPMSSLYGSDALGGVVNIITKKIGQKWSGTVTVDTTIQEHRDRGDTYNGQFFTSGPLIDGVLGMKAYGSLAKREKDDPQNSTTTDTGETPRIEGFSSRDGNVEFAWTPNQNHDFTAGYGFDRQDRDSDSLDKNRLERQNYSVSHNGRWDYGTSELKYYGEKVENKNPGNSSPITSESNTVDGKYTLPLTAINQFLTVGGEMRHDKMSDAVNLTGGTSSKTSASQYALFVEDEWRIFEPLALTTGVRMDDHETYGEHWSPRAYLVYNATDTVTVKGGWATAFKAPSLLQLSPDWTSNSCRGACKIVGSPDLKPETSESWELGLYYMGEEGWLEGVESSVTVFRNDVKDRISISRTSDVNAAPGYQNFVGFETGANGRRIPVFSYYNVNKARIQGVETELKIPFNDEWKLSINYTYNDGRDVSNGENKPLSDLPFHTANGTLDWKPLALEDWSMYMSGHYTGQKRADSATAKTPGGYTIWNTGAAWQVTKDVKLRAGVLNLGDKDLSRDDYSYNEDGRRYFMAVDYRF
Experiment: BLI
MEASURED_ENDPOINT: Kd (nM)
Report as a plain number; the unit nM is understood.

Q. Please report Kd for the following binder: Microcin V (MccV), mature, wildtype (natural protein, E. coli, UniProt P22522 16-103, looked up, biotinylated (EZ-Link Sulfo-NHS-LC kit) for BLI and ELISA; not labelled for cryo-EM and SV-AUC, Only residues 57-88 (mature numbering) were resolved in the map; also called WT MccV; Colicin V; source: E. coli BL21 (DE3), purified (HisTrap as His6-MBP fusion, TEV cleavage, second nickel column, flowthrough); not shown: His6, N-terminal, cleaved; MBP, N-terminal, cleaved) ASGRDIAMAIGTLSGQFVAGGIGAAAGGVAGGAIYDYASTHKPNPAMSPSGLGGTIKQKPEGIPSEAWNYAAGRLCNWSPNNLSDVCL
A. 374
